For each entry below, report its inhibition at 0.02 µM value.
Molecular target: GST-Bcl-B (Homo sapiens, UniProt Q9HD36)
Sequence (Q9HD36 1-182 limits assumed): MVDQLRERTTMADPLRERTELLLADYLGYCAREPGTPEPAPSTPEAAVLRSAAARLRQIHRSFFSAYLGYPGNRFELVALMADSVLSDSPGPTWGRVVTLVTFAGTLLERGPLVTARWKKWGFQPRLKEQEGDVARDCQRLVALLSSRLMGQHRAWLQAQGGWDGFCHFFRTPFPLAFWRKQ
Assay: Bcl-B/FITC-TR3-r8 fluorescence polarization competition (displacement) assay, HTS and dose-response
Details: read-out: Result Value (Result Type % Inhibition), BCL-b/TR3, Table 7, NCI Mechanistic library; Binding Assay, FP; Concentration 0.02 uM
Give the value, in units of %, as a plain number.

input: Would you mind telling me what inhibition at 0.02 µM value was observed for CN(C)CCN1C(=O)c2cccc3cc(N)cc(c23)C1=O ?
output: 87.6

input: Query COc1ccc2c(c1)-c1nn(CCCN(C)C)c3ccc([N+](=O)[O-])c(c13)N2 next
output: 64.4

input: Moving on to CC(=O)O.Cc1c2cc[n+](CCN3CCCCC3)cc2c(C)c2c1[nH]c1ccc(O)cc12
output: 120

input: Same for Cc1cc2c(C(C)C)c(O)c(O)c(C=O)c2c(O)c1-c1c(C)cc2c(C(C)C)c(O)c(O)c(C=O)c2c1O
output: 57.3

input: Would you kindly repeat that for Nc1ccc2c(c1)CN1C(=O)c3ccccc3C1=N2 ?
output: 60.7

input: Do the same for Cc1cc2c(c3oc(C4OC4C4OC4C)cc(=O)c13)C(=O)c1c(O)c(C3CC(C)(N(C)C)C(O)C(C)O3)cc(C3CC(N(C)C)C(O)C(C)O3)c1C2=O (centres unmarked) please
output: 105

input: How about this molecule: CN1CC=C(Nc2ccc(C(=O)Nc3ccc(Nc4ccncc4)cc3)c([N+](=O)[O-])c2)c2cc([N+](=O)[O-])ccc21
output: 106

input: Now this one: CC[n+]1c(-c2ccccc2)c2cc(N)ccc2c2ccc(N)cc21
output: 149
